Measured values drawn from paper PMC5247395 for this set.

Tested on: PC-3 PIP/flu tumor-bearing mice
Experiment: Biodistribution in PC-3 PIP/flu tumor-bearing mice
Conditions: 30 min p.i., i.v.; PSMA^neg xenograft
Measured parameter: PC-3 flu Tumor (% IA/g)
Response body: numeric value in % IA/g, unit text excluded.

PC-3 flu Tumor reported for this compound O=C([O-])CN1CCN(CC(=O)[O-])CCN(CC(=O)NCC2CCC(C(=O)NC(Cc3ccc4ccccc4c3)C(=O)NCCCCC(NC(=O)NC(CCC(=O)O)C(=O)O)C(=O)O)CC2)CCN(CC(=O)[O-])CC1.[68Ga+3] (stereo not shown) [^68Ga-PSMA-617] : 1.23

PC-3 flu Tumor reported for this compound O=C([O-])CN(CCN(CC(=O)[O-])Cc1cc(CCC(=O)NCCCCCC(=O)NCCCC[C@H](NC(=O)N[C@@H](CCC(=O)O)C(=O)O)C(=O)O)ccc1[O-])Cc1cc(CCC(=O)O)ccc1[O-].[68Ga+3] [^68Ga-PSMA-11] : 1.04

PC-3 flu Tumor reported for this compound O=C([O-])CN1CCN(CC(=O)[O-])CCN(CC(=O)NCC2CCC(C(=O)NC(Cc3ccc4ccccc4c3)C(=O)NCCCCC(NC(=O)NC(CCC(=O)O)C(=O)O)C(=O)O)CC2)CCN(CC(=O)[O-])CC1.[44Sc+3] (stereo not shown) [^44Sc-PSMA-617] : 1.51

PC-3 flu Tumor reported for this compound O=C([O-])CN1CCN(CC(=O)[O-])CCN(CC(=O)NCC2CCC(C(=O)N[C@@H](Cc3ccc4ccccc4c3)C(=O)NCCCC[C@H](NC(=O)N[C@@H](CCC(=O)O)C(=O)O)C(=O)O)CC2)CCN(CC(=O)[O-])CC1.[177Lu+3] (stereo partly shown) [^177Lu-PSMA-617] : 1.22

---

Tested on: PC-3 PIP/flu tumor-bearing mice
Assay: Biodistribution in PC-3 PIP/flu tumor-bearing mice
Settings: 2 h p.i., i.v.; PSMA^pos xenograft
Assign PC-3 PIP Tumor to each entry below.
Response body: numeric value in % IA/g, unit text excluded.

PC-3 PIP Tumor reported for this molecule O=C([O-])CN(CCN(CC(=O)[O-])Cc1cc(CCC(=O)NCCCCCC(=O)NCCCC[C@H](NC(=O)N[C@@H](CCC(=O)O)C(=O)O)C(=O)O)ccc1[O-])Cc1cc(CCC(=O)O)ccc1[O-].[68Ga+3] [^68Ga-PSMA-11] : 40.0

PC-3 PIP Tumor reported for this molecule O=C([O-])CN1CCN(CC(=O)[O-])CCN(CC(=O)NCC2CCC(C(=O)N[C@@H](Cc3ccc4ccccc4c3)C(=O)NCCCC[C@H](NC(=O)N[C@@H](CCC(=O)O)C(=O)O)C(=O)O)CC2)CCN(CC(=O)[O-])CC1.[177Lu+3] (stereo partly shown) [^177Lu-PSMA-617] : 45.8

PC-3 PIP Tumor reported for this molecule O=C([O-])CN1CCN(CC(=O)[O-])CCN(CC(=O)NCC2CCC(C(=O)NC(Cc3ccc4ccccc4c3)C(=O)NCCCCC(NC(=O)NC(CCC(=O)O)C(=O)O)C(=O)O)CC2)CCN(CC(=O)[O-])CC1.[44Sc+3] (stereo not shown) [^44Sc-PSMA-617] : 46.7

PC-3 PIP Tumor reported for this molecule O=C([O-])CN1CCN(CC(=O)[O-])CCN(CC(=O)NCC2CCC(C(=O)NC(Cc3ccc4ccccc4c3)C(=O)NCCCCC(NC(=O)NC(CCC(=O)O)C(=O)O)C(=O)O)CC2)CCN(CC(=O)[O-])CC1.[68Ga+3] (stereo not shown) [^68Ga-PSMA-617] : 55.8
